# test description: NCI Yeast Anticancer Drug Screen. Data for the rad50 strain (AID 155);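 further: 0% = growth of vehicle-only cultures of the same strain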
# conditions used: S. cerevisiae rad50 strain growth inhibition; at 50.0 µM; hits give high values
# Method: Growth inhibition of yeast strains with defined genetic alterations is measured as a screen for potential anti-cancer activity. Selected strains with alterations in DNA damage repair or cell cycle control were exposed to compounds and growth inhibition was measured relative to vehicle treated controls. The strain used in this assay is rad50
About 79,000 compounds went through this panel and 15% of them were active in at least one assay; those are over-represented in the sample as a whole. The source made the active and inactive calls. No stated cut-off is given here; in the data, active means growth inhibition above about 70%; inactive means the rest.

| compound | growth inhibition |
| --- | --- |
| O=[n+]1c2ccccc2n([O-])c2cc(Br)ccc21 | 99.2% (active) |
| N#CC(=Nc1ccccc1F)Nc1ccccc1F | -2.35% (inactive) |
| Cc1cccc(C(C)(C)C)c1NC(=O)C(C#N)C1=C(Cl)C(=O)c2ccccc2C1=O (stereo unspecified) | 91% (active) |
| Cc1ccc(Cl)cc1NC(=O)OCCN(C)C(=O)Nc1cc(Cl)ccc1C | 86% (active) |
| Cc1cc2c(cc1C)[n+]([O-])c(-c1nc3ccccc3s1)c(N)[n+]2[O-] | 87.8% (active) |
| Cc1ccc2nc(-c3cccc([N+](=O)[O-])c3)oc(=O)c2c1 | 14.2% (inactive) |
| Brc1ccccc1-c1ncc(-c2ccccc2)o1 | 72.2% (active) |
| CCCC/C=C/C(C)(C(=O)OCC)C(=O)OCC | -6.4% (inactive) |
| NC(=O)C(=O)NNc1ccccc1 | 95.5% (active) |
| COc1ccc(C2C3=C(COC3=O)OC(C)(C)Oc3cc4c(cc32)OCO4)cc1OC (stereo unspecified) | 97% (active) |
| Cc1cc(C)nc(NS(=O)(=O)c2ccc(Nc3c4ccccc4nc4c(C(=O)NCCO)cccc34)cc2)n1 | 39.2% (inactive) |

---

Here, each record is paired with measured growth inhibition data.
# test description: NCI Yeast Anticancer Drug Screen. Data for the bub3 strain (AID 167)
# conditions used: S. cerevisiae bub3 mutant strain, at 1.2 µM, hits give high values
The panel holds about 79,000 compounds, 15% with a hit somewhere; the sample as a whole holds those more often.
endpoint label: growth inhibition (%)

| compound | endpoint label | result value |
| --- | --- | --- |
| O=C(O)CCCC1CCCc2c1ccc1ccccc21 (stereo not given) | growth inhibition | -4 |
| O=[N+]([O-])c1cc(S(=O)(=O)Nc2ccccc2)ccc1Nc1ccccc1 | growth inhibition | 15 |
| CCOC(=O)c1ccc(NC(=O)O/N=C(/Cl)C(C)C)cc1 | growth inhibition | 9 |
| CC(=O)OC1CCC2(C)C(=CC(C3C=C4CC(OC(C)=O)CCC4(C)C4=C3C3CC5OC6(CCC(C)CO6)C(C)C5C3(C)CC4)C3=C2CCC2(C)C3CC3OC4(CCC(C)CO4)C(C)C32)C1 (stereo not given) | growth inhibition | 0 |
| Brc1ccccc1-c1ncc(-c2ccccc2)o1 | growth inhibition | 15 |
| CCN(CC)CCOc1cc(C)c2cc(Cc3ccccc3)ccc2n1 | growth inhibition | 2 |
| Nc1ncnc2c1ncn2C1OC(CO)CC1O (stereo not given) | growth inhibition | -6 |
| CCC(=O)c1cc(C(=O)C(=S)SC)cc(C(=O)C(=S)SC)c1 | growth inhibition | 6 |
| C[CH2][Sn]([CH2]C)([O]C(=O)C(N)Cc1ccccc1)[O]C(=O)C(N)Cc1ccccc1 (stereo not given) | growth inhibition | -23 |
| CCCCNC1CCC2(SCCS2)c2[nH]c3ccccc3c21 (stereo not given) | growth inhibition | -6 |
